- ASSAY DETAILS: NCI Yeast Anticancer Drug Screen. Data for the rad50 strain (AID 155);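 note: 0% = growth of vehicle-only cultures of the same strain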
- EXPERIMENTAL PARAMETERS: S. cerevisiae rad50 strain growth inhibition; at 50.0 µM
About 79,000 compounds went through this panel and 15% of them were active in at least one assay; those are over-represented in the sample as a whole. Calls of active or inactive are those of the source. Cut-off read from the data, not from the text of the source: active = growth inhibition above about 70%; inactive = the rest.
Labels: Y for active, N for inactive

INSERT INTO measurements (compound, category_label) VALUES
  ('O=C1C2CCOC2N=C2CCCN12 (stereo not drawn)', 'N'),
  ('O=C=Nc1ccccc1[N+](=O)[O-]', 'N'),
  ('CC(C)CCC(C)C1CCC2C3CC/C(=N/Nc4ccc([N+](=O)[O-])cc4[N+](=O)[O-])C(C)(CCC(=O)O)C3CCC12C (stereo not drawn)', 'N'),
  ('O=C1CCC(c2ccccc2)(c2ccccc2)CC1', 'N'),
  ('COC(=O)CNN', 'N'),
  ('CCOC1([N+](=O)[O-])c2ccccc2-c2nc3ccccc3cc21 (stereo not drawn)', 'Y'),
  ('O=C1CCC(CC2CCCCC2)CC1', 'N'),
  ('CN(C)c1ccc(N=O)c(O)c1', 'N'),
  ('O=C(c1ccccc1CO)N1CCCCC1', 'N'),
  ('C=C(C)COB(OCC(=C)C)OCC(=C)C', 'N'),
  ('Cc1nc2sccn2c1C(=O)NC(=O)Nc1ccc(Cl)cc1', 'N'),
  ('CCc1ccc(C(=O)O)cc1S(=O)(=O)Cl', 'N'),
  ('COc1ccc(C(=O)NC(=S)Nc2cc(C(F)(F)F)ccc2Cl)cc1', 'N');

---

- ASSAY DETAILS: NCI Yeast Anticancer Drug Screen. Data for the bub3 strain (AID 167)
- EXPERIMENTAL PARAMETERS: S. cerevisiae bub3 mutant strain, at 50.0 µM, hits give high values
This is part of a sample that, as a whole, favours compounds with a hit. Of some 79,000 tested, about 15% had one in any assay.
MEASURE NAME: growth inhibition (%)

INSERT INTO measurements (compound, measure_name, experimental_value) VALUES
  ('O/N=C1\CC2(N3CCOCC3)CCC1(c1ccccc1)CC2', 'growth inhibition', 38),
  ('C/C(CC(=O)Nc1ccc(Cl)cc1)=N\NC(=O)C[n+]1ccccc1', 'growth inhibition', -12.5),
  ('O=C(O)/C=C/C(O)C1CCCCC1 (configuration not stated)', 'growth inhibition', 1.05),
  ('CCOC(=O)CCC(NC(=O)c1ccc(Nc2nc3ccccc3nc2C(=O)OCC)cc1)C(=O)OCC (configuration not stated)', 'growth inhibition', 25.8),
  ('O=C(CC(C(=O)O)S(=O)(=O)O)Nc1ccc(S(=O)(=O)c2ccc(NC(=O)CC(C(=O)O)S(=O)(=O)O)cc2)cc1 (configuration not stated)', 'growth inhibition', -7.9),
  ('O=C1c2cc(Br)ccc2-c2ccc(Br)c3cccc1c23', 'growth inhibition', -1.05),
  ('CC(=O)C(C(C)=O)[N+](=O)[O-].CC(=O)C(C(C)=O)[N+](=O)[O-].[Cu]', 'growth inhibition', 23.6),
  ('CCOC(=O)C(=Cn1c(=S)[nH]c2cc(C)ccc21)C(=O)OCC', 'growth inhibition', 0.1),
  ('C=C(c1ccccc1)C1(O)CCCCC1N(C)C (configuration not stated)', 'growth inhibition', 10.9),
  ('CCC1=C[C@H]2CN(CCc3c([nH]c4ccccc34)[C@@](C(=O)OC)(c3cc4c(cc3OC)N(C)[C@H]3[C@@](O)(C(=O)NC)[C@H](OC(C)=O)[C@]5(CC)C=CCN6CC[C@]43[C@@H]65)C2)C1', 'growth inhibition', 16.4),
  ('COC(=O)C(N)CO (configuration not stated)', 'growth inhibition', -34.8),
  ('Cc1ccc(NC(=O)Oc2ccc(Br)cc2Br)c(Cl)c1', 'growth inhibition', -6.3),
  ('Cc1n(C)c(=O)c2ccccc2[n+]1C', 'growth inhibition', 1.95),
  ('O=C(NC(=Nc1ccccc1)SCSC(=Nc1ccccc1)NC(=O)c1ccco1)c1ccco1', 'growth inhibition', -4.7),
  ('NC(N)=NC(CC(=O)O)c1ccccc1 (configuration not stated)', 'growth inhibition', -46.4),
  ('COC1C(/C=C/C(C)=O)OC2OC(C)(C)OC21 (configuration not stated)', 'growth inhibition', 2.3),
  ('Cn1cnc(CC(=O)O)c1', 'growth inhibition', 11),
  ('COC(=O)C1CCC2C3CCCCC3CCC2C1(C)C(=O)OC (configuration not stated)', 'growth inhibition', 5.7),
  ('c1ccc2c(c1)CSc1ccccc1-2', 'growth inhibition', 7),
  ('CCC(C)OC(=O)CC(c1ccccc1)N1CCCCC1 (configuration not stated)', 'growth inhibition', -0.65),
  ('COC(=O)[C@H](Cc1c[nH]c2ccccc12)NP(=O)(OCCC#N)OCC1OC(n2cc(C)c(=O)[nH]c2=O)CC1N=[N+]=[N-] (some centres not stated)', 'growth inhibition', -30.8),
  ('O=C1N[C@H](Cc2cnc[nH]2)C(=O)N2CCC[C@@H]12', 'growth inhibition', 9.75);
